Provenance of the data: patent US20030161871A1

# PROCEDURE SUMMARY: Solubility of riboflavin as a function of pH and % FMN
# Type: physicochemical
# PROTOCOL CONDITIONS: thermodynamic from solid; no FMN present; read-out: equilibrium solubility of riboflavin

STRUCTURE NOTATION	solubility thermodynamic
Cc1cc2nc3c(=O)[nH]c(=O)nc-3n(C[C@H](O)[C@H](O)[C@H](O)CO)c2cc1C	~70 µg/mL

====

# PROCEDURE SUMMARY: Solubility of riboflavin as a function of pH and % FMN
# Format: physicochemical
# PROTOCOL CONDITIONS: 1% FMN solution, aqueous with cosolvent or surfactant or cyclodextrin, thermodynamic from solid; read-out: riboflavin that can dissolve (equilibrium solubility)
QUANTITY NAME: solubility thermodynamic

STRUCTURE NOTATION	QUANTITY NAME	OBSERVED RESULT
Cc1cc2nc3c(=O)[nH]c(=O)nc-3n(C[C@H](O)[C@H](O)[C@H](O)CO)c2cc1C	solubility thermodynamic	≤ 365 µg/mL
